The origin of these recorded values is patent US9102636B2.

assay: Oral pharmacokinetics (Tmax) in rats; conditions: rat, in vivo, given orally
PARAMETER: Tmax (h)
Field: numeric (h). Do not append units.

Lookup: Tell me its Tmax given `CC1(C)SC(Nc2ccccc2O)=N[C@@H]1C(=O)O` as the entry.
Found: 1
